biological target: Paired box protein Pax-6 (Homo sapiens) (UniProt P26367); test: ATG_Pax6_CIS: Attagene CIS-FACTORIAL HepG2 Assay for human Paired Box 6 (PAX6) (AID 2282956); conditions: HepG2 CIS-FACTORIAL PAX6 reporter transcription, RNA readout; actives raise or lower the signal
Sequence (P26367 whole entry, looked up): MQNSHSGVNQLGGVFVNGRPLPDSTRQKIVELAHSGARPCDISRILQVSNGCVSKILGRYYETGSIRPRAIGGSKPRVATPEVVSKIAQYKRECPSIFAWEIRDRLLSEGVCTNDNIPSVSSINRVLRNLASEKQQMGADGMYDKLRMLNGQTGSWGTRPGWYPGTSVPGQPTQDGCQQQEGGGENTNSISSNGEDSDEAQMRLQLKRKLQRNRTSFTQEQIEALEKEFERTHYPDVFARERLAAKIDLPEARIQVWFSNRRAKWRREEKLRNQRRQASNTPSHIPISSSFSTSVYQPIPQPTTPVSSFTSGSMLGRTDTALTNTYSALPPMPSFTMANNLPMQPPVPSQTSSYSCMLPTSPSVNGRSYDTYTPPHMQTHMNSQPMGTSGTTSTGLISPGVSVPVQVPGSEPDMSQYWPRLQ
Active and inactive are the calls of the source. The calls were made as follows: active = hit-call score of the fitted dose curve at least 0.9, where 1 is the maximum; inactive = score below 0.9.
Outcomes: active, inactive

# molecule, discrete-label
measured = [
    ("CCOc1cccc(-n2cc(C(=O)N3CCN(c4cc(C(=O)O)c5ccccc5c4)CC3)nc2-c2ccc(C)cc2)c1", "active"),
    ("CC(O)CN(CCN(CC(C)O)CC(C)O)CC(C)O (configuration not stated)", "inactive"),
    ("O=C(O)CC(O)C(=O)O (configuration not stated)", "inactive"),
    ("COCCOCCOCCOC", "inactive"),
    ("CCN(C(=O)c1cc(C)cc(OC[C@H](C)Nc2ccncc2)c1)C(C)C", "inactive"),
    ("O=C1CCCCCN1", "inactive"),
    ("CC(C)(O)c1coc(S(=O)(=O)NC(=O)Nc2c3c(cc4c2CCC4)CCC3)c1", "inactive"),
    ("O=C(O)CCN(C1(C(=O)NO)CCCC1)S(=O)(=O)c1ccc(Oc2ccc(F)cc2)cc1", "inactive"),
    ("O=C(O)c1cc(N=Nc2ccc(S(=O)(=O)Nc3ccccn3)cc2)ccc1O", "inactive"),
    ("Cn1cnc([N+](=O)[O-])c1Sc1ncnc2nc[nH]c12", "inactive"),
    ("NC(=O)NO", "inactive"),
    ("Nc1ccc(Nc2ccccc2)cc1", "inactive"),
]
